Below is a list of entries, each paired with its recorded Obs, % visual injury, EPHHL value.
Test system: poinsettia (EPHHL, Euphorbia heterophylla)
assay remarks: Postemergence greenhouse trial, herbicidal efficacy on poinsettia
Assay type: in vivo
assay context: applied alone at 35 g/ha, postemergence, scored 20-22 d

Can you look up the measured Obs, % visual injury, EPHHL of `Nc1c(F)c(-c2ccc3cc[nH]c3c2F)nc(C(=O)O)c1Cl` for me? 100%

Which Obs, % visual injury, EPHHL value belongs to `COC(=O)c1nc(-c2ccc3ccn(C(C)=O)c3c2F)c(F)c(N)c1Cl` ? 100%

Which Obs, % visual injury, EPHHL value belongs to CCOC(=O)c1nc(C(Cl)(Cl)Cl)n(-c2ccc(Cl)cc2Cl)n1 [fenchlorazole-ethyl, reference compound] ? 0%

Recorded Obs, % visual injury, EPHHL for `COC(=O)c1nc(-c2ccc3ccn(C(=O)C(C)C)c3c2F)c(F)c(N)c1Cl` , please? 100%
